Target: Cannabinoid receptor 2 (Homo sapiens, UniProt P34972)
Sequence (P34972 whole entry): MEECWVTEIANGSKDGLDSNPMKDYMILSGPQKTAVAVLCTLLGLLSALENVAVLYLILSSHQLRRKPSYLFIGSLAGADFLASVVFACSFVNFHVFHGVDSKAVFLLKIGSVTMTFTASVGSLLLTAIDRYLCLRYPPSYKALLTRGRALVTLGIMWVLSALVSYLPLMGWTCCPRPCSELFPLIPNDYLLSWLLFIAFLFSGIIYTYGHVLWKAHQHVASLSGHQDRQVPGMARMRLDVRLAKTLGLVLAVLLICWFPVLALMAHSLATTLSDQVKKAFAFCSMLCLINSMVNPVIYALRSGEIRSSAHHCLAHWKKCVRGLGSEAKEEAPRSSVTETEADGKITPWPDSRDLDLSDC
Assay: Agonist activity at recombinant human CB2 receptor expressed in CHO cells assessed as inhibition of forskolin-induced cAMP accumulation by measuring maximum efficacy preincubated for 15 mins followed by forskolin stimulation and measured after 15 mins by HTRF assay relative to control
Format: functional, cell-based
Conditions: filed as agonist, time 30.0 min
Assign labels as follows, please: T for Emax below 90%; F for Emax equal to or exceeding 90%.

Here are 2 compounds together with their reported answers.
Q: Dear colleague, could you confirm whether Emax of `CCCCCC[Si](C)(C)c1cc(O)c(C2CCCCC2)c(OC)c1` falls below 90%? Thanks.
Result: F

Q: Dear colleague, could you confirm whether Emax of `CCCC[Si](C)(C)c1cc(O)c(C2CCCCCC2)c(O)c1` falls below 90%? Thanks.
Result: F

Others:
Q: Dear colleague, could you confirm whether Emax of `CCCC[Si](C)(C)c1cc(O)c(C2CCCC2)c(O)c1` falls below 90%? Thanks.
Result: F

Q: Dear colleague, could you confirm whether Emax of `CCCCCC[Si](C)(C)c1cc(O)c(C2CCCC2)c(O)c1` falls below 90%? Thanks.
Result: F

Q: Dear colleague, could you confirm whether Emax of `CC[Si](C)(C)c1cc(O)c2c(c1)OC(C)(C)[C@@H]1CCC(C)=C[C@@H]21` falls below 90%? Thanks.
Result: T

Q: Dear colleague, could you confirm whether Emax of `C=C(C)[C@@H]1CCC(C)=C[C@H]1c1c(O)cc([Si](C)(C)CCCC)cc1O` falls below 90%? Thanks.
Result: T

Q: Dear colleague, could you confirm whether Emax of `CCCCCC[Si](C)(C)c1cc(O)c2c(c1)OC(C)(C)c1ccc(C)cc1-2` falls below 90%? Thanks.
Result: F
